- subjectOfTest: S100A6
- assayNotes: FP; direct
measurementKind: Kd (µM)

binder	outputUnit	result
SEGLMNVLKKIYEDG [SIP (188-202) peptide]	µM	8.7
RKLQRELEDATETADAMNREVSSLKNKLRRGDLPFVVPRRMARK [NMIIA (1894-1937) peptide]	µM	0.58
VLQTWLQDLLRRGLVRAAQ [TRPM4 (129-147) peptide]	µM	1.4
RRLLFYKYVYKR [NCX1 (254-265) peptide]	µM	27
